target: β-secretase(BACE) (Homo sapiens); construct: purchased Panvera; assay: BACE FS1% Inhibition Assay; type: biochemical; conditions: 3 μM test compound; FS1 substrate; read-out: % Inhibition (FS) 3 μM
Result Type: inhibition at 3 µM

[
  {
    "Molecule": "NC1=Nc2ccc(Oc3ccccc3)cc2CN1CCNC(=O)NC12CC3CC(CC(C3)C1)C2 [Compound 206]",
    "Result Type": "inhibition at 3 µM",
    "Observed": "106%"
  }
]

Q. Name the reported inhibition at 3 µM value associated with the molecule CN(C(=O)c1cccc(C(C2CCCCC2)N2Cc3cc(Oc4ccccc4)ccc3N=C2N)c1)C1CCCCC1 (centres unmarked) [Compound 534]
A. 126%

Q. Give the measured inhibition at 3 µM of CC1CCCCC1NC(=O)CCN1Cc2cc(Oc3ccccc3)ccc2N=C1N (centres unmarked) [Compound 511] .
A. 113%

Q. Please give the measured inhibition at 3 µM for this molecule: Cc1ccccc1-c1ccc2c(c1)CN(CCNC(=O)C1CCCCC1)C(N)=N2 [Compound 537]
A. 125%

###

molecular target: β-secretase(BACE) (Homo sapiens); construct: purchased Panvera; experiment: BACE Assay-1 (MCA-substrate, IC50); format: biochemical; conditions: procedure of Example 158; read-out: IC50 μM (158)
Result Type: IC50
Give the number first and the unit second.

[
  {
    "Molecule": "COCCN1Cc2cc(C(=O)c3ccccc3)ccc2N=C1N",
    "IC50": "91 µM"
  },
  {
    "Molecule": "CC(C)[C@H](CCC(=O)N(C)C1CCCCC1)N1Cc2cc(Oc3ccccc3)ccc2N=C1N",
    "IC50": "0.011 µM"
  },
  {
    "Molecule": "CN(C(=O)CCC(c1ccc(Cl)cc1)N1Cc2cc(Oc3ccccc3)ccc2N=C1N)C1CCCCC1 (stereo not drawn)",
    "IC50": "0.066 µM"
  },
  {
    "Molecule": "NC1=Nc2ccc(Oc3ccccc3)cc2CN1C(CNC(=O)C1CCCCC1)C1CCCCC1 (stereo not drawn)",
    "IC50": "0.016 µM"
  },
  {
    "Molecule": "CCCCC(CC)C(=O)NCC(C1CCCCC1)N1Cc2cc(Oc3ccccc3)ccc2N=C1N (stereo not drawn)",
    "IC50": "0.062 µM"
  }
]

Q. Need IC50 of `NC1=Nc2ccc(C(=O)c3ccccc3)cc2CN1CCCOc1ccccc1` , thanks.
A. 3.1 µM

Q. Request the reported IC50 associated with `CN(Cc1cccc2ccccc12)C(=O)CCCCN1Cc2cc(C(=O)c3ccccc3)ccc2N=C1N`
A. 2.2 µM

Q. Name the reported IC50 value associated with the molecule `CCCN1Cc2cc(Oc3cccc(NS(=O)(=O)C(C)C)c3)ccc2N=C1N`
A. 8.9 µM

Q. Please look up its IC50: `CCCN1Cc2cc(Oc3cccc(NS(=O)(=O)c4ccccc4C(F)(F)F)c3)ccc2N=C1N`
A. 0.7 µM

###

target: β-secretase(BACE) (Homo sapiens); construct: purchased Panvera; assay: BACE Assay-2 (FS1 substrate, IC50 and Ki); assay type: biochemical; conditions: procedure of Example 159, FS1 substrate; read-out: Ki μM (159)
Result Type: Ki (µM)
Supply the numeric figure in µM, leaving out any unit text.

[
  {
    "Compound": "C[C@H](CNC(=O)C1CCCCC1)N1Cc2cc(Oc3ccccc3)ccc2N=C1N",
    "Experimental System": "β-secretase(BACE) (Homo sapiens)",
    "Ki [µM]": 0.1
  },
  {
    "Compound": "CCOc1ccccc1-c1ccc2c(c1)CN(Cc1cccc(C(=O)N(C)C3CCCCC3)c1)C(N)=N2",
    "Experimental System": "β-secretase(BACE) (Homo sapiens)",
    "Ki [µM]": 0.02
  },
  {
    "Compound": "COc1ccccc1-c1ccc2c(c1)CN(CCNC(=O)C1CCCCC1)C(N)=N2",
    "Experimental System": "β-secretase(BACE) (Homo sapiens)",
    "Ki [µM]": 0.26
  },
  {
    "Compound": "CC(C)CN(CC(C)C)C(=O)c1cccc(CN2Cc3cc(Oc4ccccc4)ccc3N=C2N)c1",
    "Experimental System": "β-secretase(BACE) (Homo sapiens)",
    "Ki [µM]": 0.69
  },
  {
    "Compound": "NC1=Nc2ccc(Oc3ccccc3)cc2CN1C(CCNC(=O)C1CCCCC1)C1CCCCC1 (centres unmarked)",
    "Experimental System": "β-secretase(BACE) (Homo sapiens)",
    "Ki [µM]": 0.1
  }
]

Q. What Ki appears in the records for this compound with β-secretase(BACE) (Homo sapiens)? `CN(C(=O)c1cccc(CN2Cc3cc(-c4ccccc4OC(F)(F)F)ccc3N=C2N)c1)C1CCCCC1`
A. 0.52

Q. Lab note: need Ki with β-secretase(BACE) (Homo sapiens) for entry `NC1=Nc2ccc(Oc3ccccc3)cc2CN1Cc1cccc(C(=O)N(C2CCCCC2)C2CCCCC2)c1` , please look it up.
A. 1.1

Q. // lookup Ki | system=β-secretase(BACE) (Homo sapiens) | key= `Cc1cccc(C)c1-c1ccc2c(c1)CN(Cc1cccc(C(=O)N(C)C3CCCCC3)c1)C(N)=N2`
A. 0.66

Q. State its Ki on β-secretase(BACE) (Homo sapiens): `CCCC(CCC)C(=O)NCCN1Cc2cc(Oc3ccccc3)ccc2N=C1N`
A. 0.19

Q. What measured Ki is associated with CN(C(=O)CCC(C1CCCCC1)N1Cc2cc(Oc3ccccc3)ccc2N=C1N)C1CCC(O)CC1 (centres unmarked) on β-secretase(BACE) (Homo sapiens)?
A. 0.1

Q. Form: Entry = `CCCN1Cc2cc(Oc3cccc(NC4CCCCC4)c3)ccc2N=C1N` | System = β-secretase(BACE) (Homo sapiens) | Ki = ____
A. 0.82

Q. Request: Ki, test system β-secretase(BACE) (Homo sapiens), entry COc1ccccc1-c1ccc2c(c1)CN(C(CCC(=O)N(C)C1CCCCC1)C1CCCCC1)C(N)=N2 (centres unmarked) [Compound 227]
A. 0.065

Q. State its Ki on β-secretase(BACE) (Homo sapiens): `Cc1ccccc1-c1ccc2c(c1)CN(CCNC(=O)C1CCCCC1)C(N)=N2`
A. 0.041

Q. Requested read-out Ki, target or system β-secretase(BACE) (Homo sapiens), entry NC1=Nc2ccc(Oc3ccccc3)cc2CN1C(CNC(=O)C(c1ccccc1)c1ccccc1)C1CCCCC1 (centres unmarked)
A. 0.56

###

This section presents molecules with their documented IC50 values.
target: β-secretase(BACE) (Homo sapiens); construct: purchased Panvera; experiment: BACE Assay-1 (MCA-substrate, IC50); format: biochemical; settings: procedure of Example 158; read-out: IC50 μM (158)
Quick reminder: number only, in µM, skip the unit.

As a guide, the following entries are already answered.
[
  {
    "Molecule": "CCCN1Cc2cc(Oc3cccc(NS(=O)(=O)c4cccc(OC(F)(F)F)c4)c3)ccc2N=C1N",
    "IC50 [µM]": 1
  },
  {
    "Molecule": "COC1CCCC(C(=O)NCCN2Cc3cc(Oc4ccccc4)ccc3N=C2N)C1 (stereo not drawn)",
    "IC50 [µM]": 0.31
  },
  {
    "Molecule": "CCCN1Cc2cc(Oc3cccc(NS(=O)(=O)c4ccsc4)c3)ccc2N=C1N",
    "IC50 [µM]": 0.89
  },
  {
    "Molecule": "CN(C(=O)CCN1Cc2cc(C(=O)c3ccccc3)ccc2N=C1N)C1CCCc2ccccc21 (stereo not drawn)",
    "IC50 [µM]": 2.7
  }
]

Q. What value of measured IC50 is listed for `CN(C(=O)CCN1Cc2ccc(C(=O)c3ccccc3)cc2N=C1N)C1CCCCC1` ?
A. 33

Q. What does the data say about its IC50? Entry: `NC1=Nc2ccc(Oc3cccc(NS(=O)(=O)c4ccccc4)c3)cc2CN1CCCCO`
A. 0.24

###

biological target: β-secretase(BACE) (Homo sapiens, UniProt P56817); construct: purchased Panvera; test: BACE Assay-2 (FS1 substrate, IC50 and Ki); assay type: biochemical; settings: procedure of Example 159, FS1 substrate; read-out: Ki μM (159)
Sequence (P56817 46-501): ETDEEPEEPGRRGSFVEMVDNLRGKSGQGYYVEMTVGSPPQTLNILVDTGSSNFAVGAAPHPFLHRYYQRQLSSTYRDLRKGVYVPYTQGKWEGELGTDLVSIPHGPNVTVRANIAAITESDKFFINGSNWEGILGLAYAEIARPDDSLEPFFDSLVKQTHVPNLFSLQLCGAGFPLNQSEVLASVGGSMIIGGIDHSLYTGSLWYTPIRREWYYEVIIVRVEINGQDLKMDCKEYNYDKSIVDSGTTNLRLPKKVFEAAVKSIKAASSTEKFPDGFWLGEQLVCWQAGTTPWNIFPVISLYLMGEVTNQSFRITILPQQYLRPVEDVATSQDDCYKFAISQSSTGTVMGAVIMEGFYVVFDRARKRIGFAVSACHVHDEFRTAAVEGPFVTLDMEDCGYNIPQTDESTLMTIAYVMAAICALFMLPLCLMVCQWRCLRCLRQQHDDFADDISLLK
Listing: Ki of selected molecules

Q. What value of Ki has been reported for the following molecule? CCCC(CCCC(=O)N(C)C1CCN(C)CC1)N1Cc2cc(Oc3ccccc3)ccc2N=C1N (stereo not shown)
A. 0.23 µM

Q. Reported Ki, molecule `CN(C(=O)c1cccc(CN2Cc3cc(-c4ccccc4Br)ccc3N=C2N)c1)C1CCCCC1` : ____
A. 0.19 µM

Q. For `CN(C(=O)c1cccc(CN2Cc3cc(-c4ccccc4S(=O)(=O)NC(C)(C)C)ccc3N=C2N)c1)C1CCCCC1` , what is its reported Ki?
A. 0.81 µM

Q. What value of measured Ki is listed for `NC1=Nc2ccc(Oc3ccccc3)cc2CN1[C@@H](CCC(=O)N(CCO)[C@H]1CC[C@@H](C(=O)O)CC1)C1CCCCC1` ?
A. 0.017 µM
